molecular target: dihydrofolate reductase (DHFR) (Escherichia coli, UniProt P0ABQ4, C152S/C85A); assay: spectrophotometric DHFR activity assay ([…] nm) with in-house purified E. coli DHFR, triplicates
Quick list: IC50 per entry.
Kindly write the number and append the unit.

In [3]: df
Out[3]:
                            compound_smiles                             target_entity  reported_metric  data_value
0  COc1cc(Cc2cnc(N)nc2N)cc(OC)c1OCc1cc(Cl)c(/N=N\c2c(Cl)cccc2Cl)c(Cl)c1  dihydrofolate reductase (DHFR) (Escherichia coli, UniProt P0ABQ4, C152S/C85A)             IC50      3.3 nM

Note: attention shifts to another entry.
IC50 in this record for "COc1cc(Cc2cnc(N)nc2N)cc(OC)c1OCc1cc(Cl)c(/N=N/c2c(Cl)cccc2Cl)c(Cl)c1" : 3.8 nM
